B1: TPR t1 (parent)
chain: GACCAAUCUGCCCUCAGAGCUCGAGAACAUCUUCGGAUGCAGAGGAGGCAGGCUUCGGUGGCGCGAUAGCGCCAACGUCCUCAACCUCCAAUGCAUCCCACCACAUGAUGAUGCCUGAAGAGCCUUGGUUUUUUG

variants of: B1; test: polymerase ribozyme fitness, log enrichment relative to wild type (log ratio); higher = more active; in vitro selection for triplet polymerase activity

{"columns": ["Mutant Id", "polymerase ribozyme fitness (log ratio)"],
 "data": [
  ["C15G G60A G117U", -0.472],
  ["G45U U96G", -1.78],
  ["U7A C8G A43C C53A G69U", -0.446],
  ["C4A C15U G61A U87A", -2.75],
  ["G36U U55G C89G G113U", -4.27],
  ["C15U C40U G61U", -0.881],
  ["C3U C15U G39C", -2.34],
  ["A26G C86U", -2.13],
  ["C11U U131G", -1.44],
  ["A27U C72U U106G U129A G135U", -5.91],
  ["A46U C49U G58C G60A A95C U112G U132A", -3.98]
]}
